tested on: SN12C renal; test: NCI-60 one-dose screen, 48 h (100 = growth as untreated, 0 = no growth, -100 = all killed); conditions: 10 µM unless noted
The panel holds about 83,000 compounds, 20% with a hit somewhere; the sample as a whole holds those more often. Activity calls are given as the source filed them. The calls were made as follows: active = growth percent below 10; inactive = the rest.

Compound: O=c1[nH]c(=S)[nH]c(=O)n1Cc1cccc2ccccc12
growth: 101% (inactive)

Compound: COc1cc2nc(N3CCC[C@H](NC4=CC(=O)c5ccccc5C4=O)C3)nc(N)c2cc1OC
growth: 65.4% (inactive)

Compound: CC(=O)Nc1ccc(S(=O)(=O)N/N=C\c2ccc(Cl)c(Cl)c2)cc1
growth: 99.1% (inactive)
